Biological target: T1, S. pombe Nbs1 (S. pombe, UniProt O43070 1-613)
T1 chain: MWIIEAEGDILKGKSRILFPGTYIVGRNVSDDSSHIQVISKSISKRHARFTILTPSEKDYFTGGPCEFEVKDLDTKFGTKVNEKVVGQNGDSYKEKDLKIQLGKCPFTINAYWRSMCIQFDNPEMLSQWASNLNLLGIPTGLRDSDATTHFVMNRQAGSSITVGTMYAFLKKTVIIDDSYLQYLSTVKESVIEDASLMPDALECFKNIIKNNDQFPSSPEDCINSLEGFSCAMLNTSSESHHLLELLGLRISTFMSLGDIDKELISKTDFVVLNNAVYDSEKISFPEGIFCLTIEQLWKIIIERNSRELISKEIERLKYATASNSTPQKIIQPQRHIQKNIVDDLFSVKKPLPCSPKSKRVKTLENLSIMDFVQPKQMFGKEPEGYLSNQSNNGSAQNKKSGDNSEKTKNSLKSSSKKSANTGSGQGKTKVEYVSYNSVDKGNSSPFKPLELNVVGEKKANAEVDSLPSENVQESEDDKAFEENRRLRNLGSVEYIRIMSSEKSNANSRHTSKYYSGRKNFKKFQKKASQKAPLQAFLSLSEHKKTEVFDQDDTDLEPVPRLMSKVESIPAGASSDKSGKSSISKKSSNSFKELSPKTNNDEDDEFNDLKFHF
Assay: FP
Where no end group is shown, it is not given here. [ ]: non-standard residue; d: D form. pT = C[C@@H](OP(=O)(O)O)[C@H](N)C(=O)O; pS = N[C@@H](COP(=O)(O)O)C(=O)O

| binder | Kd, nM |
| --- | --- |
| fluorescein-GYGVEGDHS[pS]D[pT]EEEVVS [Mdb1 pS216, pT218 fluorescein-labelled phosphopeptide (SDT site)] | 820 |
